System: HTT
Experiment: Splicing RT-qPCR assay, HTT mRNA canonical junction (CJ) and alternative junction (AJ)
Type: cell-based, human
Details: Homo sapiens, RT-qPCR panel, canonical junction mRNA; compound concentration having 50% response in CJ decrease; read-out: HTT IC50 (decrease in CJ mRNA levels)
Recorded IC50 by entry

Known IC50 results, listed for orientation:
{"Query smiles": "CN(c1ccc(-c2ccc(-n3cccn3)c3cn[nH]c23)nn1)C1CC(C)(C)NC(C)(C)C1", "IC50": "0.1 to 1 µM"}
{"Query smiles": "c1nc2c(-c3cn[nH]c3)ccc(-c3ccc(OC4CCNCC4)nn3)c2s1", "IC50": "0.1 to 1 µM"}
{"Query smiles": "CCN(c1ccc(-c2ccc(-c3cn[nH]c3)c3cn[nH]c23)nn1)C1CC(C)(C)NC(C)(C)C1", "IC50": "1 to 10 µM"}
{"Query smiles": "Cc1cc(-c2ccc(-c3ccc(O[C@@H]4C[C@H]5CC[C@@H](C4)N5)nn3)c3scnc23)ccn1", "IC50": "1 to 10 µM"}
{"Query smiles": "CC(C)(C)[C@@H]1CN(c2ncc(-c3ccc(-n4cccn4)c4[nH]ncc34)nn2)CCN1", "IC50": "0.1 to 1 µM"}
{"Query smiles": "CC1(C)CC(Nc2ccc(-c3ccc(-c4cn[nH]c4)c4cn[nH]c34)nn2)CC(C)(C)N1", "IC50": "0.1 to 1 µM"}
{"Query smiles": "CN(c1ccc(-c2ccc(-c3cn[nH]c3)c3ncsc23)nn1)[C@@H]1C[C@H]2CC[C@@H](C1)N2", "IC50": "< 0.1 µM"}

Next:
Ask: Consider the compound shown here: c1n[nH]cc1-c1ccc(-c2ccc(N3CCNCC3)nn2)c2[nH]ncc12 What is its recorded IC50?
Reply: > 10 µM

* * *

Recorded IC50 by entry
System: Target C
Assay: Splicing RT-qPCR panel, Target C canonical junction (CJ) mRNA
Type: cell-based, human
Conditions: Homo sapiens, RT-qPCR panel, canonical junction mRNA; compound concentration having 50% response in CJ decrease; read-out: Target C IC50 (decrease in CJ mRNA levels)

{"Query smiles": "[2H]C([2H])([2H])N(c1ccc(-c2ccc(-c3cn[nH]c3)c3ncsc23)nn1)[C@@H]1C[C@H]2CC[C@@H](C1)N2", "IC50": "< 0.1 µM"}
{"Query smiles": "CN(c1ccc(-c2ccc(-c3cn[nH]c3)c3cn[nH]c23)nn1)C1CCNCC1", "IC50": "> 10 µM"}
{"Query smiles": "Cn1cc(-c2ccc(-c3ccc(N[C@@H]4C[C@H]5CC[C@@H](C4)N5)nn3)c3[nH]ncc23)nn1", "IC50": "> 10 µM"}

Ask: Consider the compound shown here: c1nc2c(-c3cn[nH]c3)ccc(-c3ccc(N4CCC5(CCNC5)CC4)nn3)c2s1 What is its recorded IC50?
Reply: > 10 µM

* * *

Test system: MYB
Test: Splicing RT-qPCR assay, MYB mRNA canonical junction (CJ) and alternative junction (AJ)
Assay type: cell-based, human
Conditions: Homo sapiens, 24 h, decrease in CJ mRNA; A673 or K562 cells, 24 hours treatment, RT-qPCR; read-out: MYB CJ IC50
Recorded IC50 by entry

Known IC50 results, listed for orientation:
{"Compound": "CN(c1ccc(-c2cc(F)c(-c3cnn(C)c3)c3cn[nH]c23)nn1)C1CC(C)(C)NC(C)(C)C1", "IC50": "100 to 1000 nM"}
{"Compound": "CN1CCC12CCN(c1ccc(-c3ccc(-c4cn[nH]c4)c4ncsc34)nn1)C2 (stereo not shown)", "IC50": "> 10000 nM"}
{"Compound": "c1nc2c(-c3cn[nH]c3)ccc(-c3ccc(N(C4CCNCC4)C4CC4)nn3)c2s1", "IC50": "> 10000 nM"}

Next:
Ask: Consider the compound shown here: COc1cc(-c2ccc(-c3ccc(N(C)C4CC(C)(C)NC(C)(C)C4)nn3)c3scnc23)cnn1 What is its recorded IC50?
Reply: 100 to 1000 nM

Sourced from patent US20240368163A1
